The reported measurements were obtained from patent US20240199584A1.

target: KRAS G12D (Homo sapiens, UniProt P01116, G12D); assay: biochemical
Sequence (P01116 1-188 isoform P01116-2 G12D): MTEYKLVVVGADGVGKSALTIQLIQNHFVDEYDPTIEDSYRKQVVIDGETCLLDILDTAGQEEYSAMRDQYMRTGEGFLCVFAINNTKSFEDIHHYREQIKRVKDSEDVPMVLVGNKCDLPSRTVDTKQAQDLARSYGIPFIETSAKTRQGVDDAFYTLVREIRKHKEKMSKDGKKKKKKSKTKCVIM
Recorded IC50 by entry

compound="C#Cc1c(F)ccc2cc(O)cc(-c3ccc4c(N5CC6CCC(C5)N6C(=O)C(F)(F)F)nc(OC[C@]56CCC[C@H]5N(C)CCC6)nc4c3F)c12 [Example 7-7]" measured_result="< 0.002 µM"
compound="C#Cc1c(F)ccc2cc(O)cc(-c3ncc4c(N5CC6CCC(C5)N6C(=O)C5CC5)nc(OC[C@@]56CCCN5C[C@H](F)C6)nc4c3F)c12 [Example 6-2]" measured_result="< 0.002 µM"
compound="CN1CCC[C@@]2(COc3nc(N4CCC[C@@](C)(O)C4)c4cnc(-c5cn(C(F)F)c(=O)c6ccccc56)c(F)c4n3)CCC[C@@H]12 [Example 10-6]" measured_result="> 100 µM"

According to the records, this compound C#Cc1c(F)ccc2cc(O)cc(-c3ccc4c(N5CC6CCC(C5)N6C(=O)C5CC(F)(F)C5)nc(OC[C@@]56CCCN5C[C@H](F)C6)nc4c3F)c12 [Example 7-4] displays IC50 of < 0.002 µM

Query C#Cc1c(F)ccc2cc(O)cc(-c3ncc4c(N5CCCC(CO)C5)nc(OC[C@@]56CCCN5C[C@H](F)C6)nc4c3F)c12 (single isomer, unassigned) [Example 1-63] yields IC50 of 12.8 µM
